Origin of values: patent US20230212123A1

biological target: glucosylceramide synthase (GCS) (Canis lupus familiaris); construct: endogenous in cells; host or cells: MDCK cell homogenate; assay: GCS inhibition in MDCK cell homogenates (Lysate IC50); assay type: biochemical, canine; details: MDCK cell homogenate
Sequence (A0A8I3MXG6 1-394): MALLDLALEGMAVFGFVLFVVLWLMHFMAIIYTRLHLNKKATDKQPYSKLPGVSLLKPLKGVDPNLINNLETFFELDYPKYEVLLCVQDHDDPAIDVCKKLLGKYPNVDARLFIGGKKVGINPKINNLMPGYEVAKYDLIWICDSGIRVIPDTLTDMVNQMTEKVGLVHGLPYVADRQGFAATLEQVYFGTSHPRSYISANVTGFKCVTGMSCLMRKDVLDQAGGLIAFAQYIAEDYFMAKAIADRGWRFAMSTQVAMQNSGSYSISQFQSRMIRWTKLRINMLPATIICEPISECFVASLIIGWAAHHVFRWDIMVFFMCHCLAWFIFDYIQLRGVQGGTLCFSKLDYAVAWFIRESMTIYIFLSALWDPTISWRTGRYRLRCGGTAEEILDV
Property Label: IC50 (nM)

Worked set:
1) COc1ccc([C@@H](O)[C@@H](CN2CCCC2)N(C)C(=O)CC2Cc3ccccc3C2)nc1 :: 37.4
2) COc1ccc([C@@H](O)[C@@H](CN2CC3CC3C2)NC(=O)CC2Cc3ccccc3C2)nc1 (stereo partly drawn) :: 21.3

(P) O=C(CC1Cc2ccccc2C1)N[C@H](CN1CCCC1)[C@H](O)c1ccc(OC(F)(F)F)cn1 (racemic) [Example 5]
(Q) O=C(CC1Cc2ccccc2C1)N[C@H](CN1CCCC1)[C@H](O)c1cc(Cl)ccn1 (stereo in doubt) [Example 23]
Lab notebook, comparison: P versus Q , higher IC50 goes to which? When you have decided, please share the label of that item.
P
(P: 249 nM, Q: 16.1 nM)
